Molecular target: hSSB1 (Homo sapiens, UniProt Q9BQ15 Q9BQ15:1-211)
Sequence (Q9BQ15 whole entry, one chain of several): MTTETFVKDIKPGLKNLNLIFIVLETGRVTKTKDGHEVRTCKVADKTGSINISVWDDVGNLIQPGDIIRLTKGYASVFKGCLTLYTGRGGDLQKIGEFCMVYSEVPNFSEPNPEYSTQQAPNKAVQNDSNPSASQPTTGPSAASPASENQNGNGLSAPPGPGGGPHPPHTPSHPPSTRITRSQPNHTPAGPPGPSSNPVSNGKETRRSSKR
Test: SPR; LSA_In3E3 = 1
PROPERTY_NAME: binding signal (normalized Rmax)
Report as a plain number; the unit normalized Rmax is understood.

Query CCAGUGAGCCGGA (ssRNA, 2'-OMe all, PS all) [In3E3 3' truncation 13 nt] yields binding signal of 0.53

CCAGUGAGCUGGACUUGCCU (ssRNA, 2'-OMe all, PS all) [In3LSA_CU] yielded binding signal of 0.97

Lab book: binding signal of UGAGCCGGACUUGCCU (ssRNA, 2'-OMe all, PS all) [In3E3 5' truncation 16 nt] noted as 0.48

Quick note, binding signal for CCAGUGAGCCGGACU (ssRNA, 2'-OMe all, PS all) [In3E3 3' truncation 15 nt] landed at 0.36
